Listing: STK11 functional score of selected variants
B1: library; numbered along this chain (parent)
chain: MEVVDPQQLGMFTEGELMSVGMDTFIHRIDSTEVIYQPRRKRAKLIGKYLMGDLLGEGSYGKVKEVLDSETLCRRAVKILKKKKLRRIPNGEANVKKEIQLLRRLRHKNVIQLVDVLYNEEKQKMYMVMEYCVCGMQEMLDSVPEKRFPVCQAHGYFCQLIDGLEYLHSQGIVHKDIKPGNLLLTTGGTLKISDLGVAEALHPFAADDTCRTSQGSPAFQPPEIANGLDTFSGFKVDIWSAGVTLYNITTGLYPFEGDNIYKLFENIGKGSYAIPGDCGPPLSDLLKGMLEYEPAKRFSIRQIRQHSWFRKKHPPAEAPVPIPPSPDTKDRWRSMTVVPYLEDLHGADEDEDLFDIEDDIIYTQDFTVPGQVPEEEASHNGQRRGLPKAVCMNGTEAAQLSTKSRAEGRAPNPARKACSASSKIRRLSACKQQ

Variants of: B1
method_notes: STK11 functional score (HeLa growth suppression), rescaled enrichment; synonymous median = 1, nonsense median = 0 (normalised score)
condition: with HeLa; variant type: missense
recorded_endpoint: STK11 functional score

K312R : 1.57
I177H : -0.12
G381D : 1.57
E199C : 1.38
L67D : 0.672
H345A : 1.56
K96Q : 0.724
K191D : -0.393
K108L : 1.1
A347I : 1.52
R40H : 1.09
L282G : 0.43
S283W : 0.819
Y60V : 0.694
V133N : 1.17
E407W : 0.194
K235N : 0.877
H313L : 1.48
G61P : 0.916
M136P : -0.132
Q371G : 1.03
M129G : 0.986
Q137P : 1.19
M289R : -0.101
E375K : 1.56
N94I : 1.14
K423H : 0.899
K84C : 1.68
A316L : 0.961
H313N : 0.48
E349F : 0.989
K329E : 1.32
G163L : 0.386
D208R : 1.59
R147Q : 0.506
Y156S : 0.762
K78C : 0.21
E33S : 0.81
V368A : 1.36
A206S : 1.17
A410F : 1.4
A273D : 0.919
H379A : 1.38
G251R : 0.411
F255C : 0.921
K423Y : 1.41
T24L : 1.18
L195F : 1.46
H379R : 1.36
M127H : 1.63
A198W : 1.16
I303V : 1.43
L113A : 0.492
K416I : 1.55
T186F : 1.33
E138V : 0.367
I267D : 0.629
A295V : 1.17
T13P : 1.58
L285Y : -0.477
F298A : 1.55
V116W : 0.541
K83P : 1.64
E357S : 1.52
G215N : 1.43
H174Y : 1.11
Q7Y : 1.22
L184G : 0.204
D258R : 1.29
K96E : 0.384
E33Y : 1.21
K82H : 1.08
